Reference source: ChEMBL document CHEMBL1201862

Test system: LOX IMVI
Assay: NCI tumour cell line growth inhibition, 48 h
The source made the active and inactive calls. Rule as the data show it: active = GI50 up to about 1.1 µM and inactive = higher.
Hi! Could you answer with just one of these? true = active, false = inactive

OCC(O)C(O)C(O)C(O)c1nnn[nH]1 (configuration not stated) :: false

Query :: Status in this test for `O/N=C\c1c2c(cc3c1CCC3)CCC2` ?
Result :: false

Query :: Status in this test for `Cc1ccc(S(=O)(=O)N/C(=N\O)Nc2ccc(Cl)c(Cl)c2)cc1` ?
Result :: false

Query :: Status in this test for CC(C)=CC1CC(=O)C1(C)Sc1ccccc1 (configuration not stated) ?
Result :: false

Query :: Status in this test for O=S(=O)(/N=C(\NO)Nc1ccc(Cl)cc1)C1CC=C(c2ccon2)S1 (configuration not stated) ?
Result :: false

Query :: Status in this test for `O=C1C(O)=C(CC=C(Cl)Cl)C(=O)c2ccccc21` ?
Result :: false

Query :: Status in this test for `ClC(Cl)(Cl)C1=N[C@H]2[C@H](Br)[C@@H]3O[C@@H](c4ccccc4)[C@H](c4ccccc4)O[C@@H]3[C@H]2O1` ?
Result :: false

Query :: Status in this test for Cc1ccc(S(=O)(=O)OCC23CCC(C2)C2CC23)cc1 (configuration not stated) ?
Result :: false

Query :: Status in this test for `CC1(C)CC(=O)c2c(nc(SSc3nc4c(c(-c5ccc(Br)cc5)c3C#N)C(=O)CC(C)(C)C4)c(C#N)c2-c2ccc(Br)cc2)C1` ?
Result :: false

Query :: Status in this test for CC[C@@]1(O)C[C@H](OC2CC(N(C)C)C(O)C(C)O2)c2c(cc3c(c2O)C(=O)c2c(O)ccc(O)c2C3=O)[C@H]1C(=O)OC (some centres not stated) ?
Result :: true

Query :: Status in this test for `CCN1c2ccccc2NC(=S)c2c(-c3ccccc3)n[nH]c21` ?
Result :: false

Query :: Status in this test for CC(=O)Nc1cccc(N2C(=O)/C(=C\c3cccc(Oc4ccccc4)c3)SC2c2ccccc2)c1 (configuration not stated) ?
Result :: false

Query :: Status in this test for CC(O)C(C(=O)O)N(CC1(O)OCC(O)C(O)C1O)N=O (configuration not stated) ?
Result :: false

Query :: Status in this test for `CN(C)c1nnnn1-c1c(N)n(C)c(=O)n(C)c1=O` ?
Result :: false

Query :: Status in this test for `CC(=O)O/N=C/c1ncccc1CO` ?
Result :: false

Query :: Status in this test for `O=C(N/C=C1\C(=O)Oc2ccccc2C1=O)NC1CCCCC1` ?
Result :: false

Query :: Status in this test for `O=C1CCCCC/C1=C\c1ccc(F)cc1` ?
Result :: false

Query :: Status in this test for `CCOC(=O)/C=C(/C(=O)OCC)n1ccc(N)nc1=O` ?
Result :: false

Query :: Status in this test for COc1ccc(NC2C(=O)C3(C)CCC2C3(C)C)cc1 (configuration not stated) ?
Result :: false

Query :: Status in this test for COc1cc(/C=C2\CCC(CN(C)C)C2=O)ccc1OC(=O)c1ccccc1 (configuration not stated) ?
Result :: false

Query :: Status in this test for `Nc1nc(-c2ccco2)cc(-c2ccco2)n1` ?
Result :: false

Query :: Status in this test for `N#C/C(=C\c1ccc(O)c(O)c1)c1c(C#N)c(N)nn1-c1ccccc1` ?
Result :: false
